test: Solubility at pH 3.1; type: physicochemical; details: buffer
Measured solubility, listed per entry for reference.
Numeric answer only, unit µg/mL assumed.

CO/C(C)=C1/NC(=O)[C@H]([C@@H](C)O)NC(=O)c2csc(n2)-c2cc(O)c(-c3nc(C(=O)N[C@@H](C)C(N)=O)cs3)nc2-c2csc(n2)[C@@H]2COC(=O)c3c4c5c(cccc5n3O)COC(=O)[C@@H](O[C@H]3C[C@](C)(O)[C@H](N(C)C)[C@H](C)O3)[C@@H](OC4)[C@H](NC(=O)c3csc1n3)c1nc(cs1)C(=O)N2 | 700

Consider now this further molecule.
Quickly give me recorded solubility for CO/C(C)=C1/NC(=O)[C@H]([C@@H](C)O)NC(=O)c2csc(n2)-c2cc(O)c(-c3nc(C(=O)N[C@@H](C)C(=O)N(C)CCO)cs3)nc2-c2csc(n2)[C@@H]2COC(=O)c3c4c5c(cccc5n3O)COC(=O)[C@@H](O[C@H]3C[C@](C)(O)[C@H](N(C)C)[C@H](C)O3)[C@@H](OC4)[C@H](NC(=O)c3csc1n3)c1nc(cs1)C(=O)N2
2300
